# measured-on: Arp2/3 complex (yeast) (Saccharomyces cerevisiae, UniProt P32381+P47117, P47117:F362A)
# procedure-details: fluorescence increase titration, one-site fit
# Assay type: binding
measured-parameter: Kd (µM)
Only the number, expressed in µM, is required.

Field: Kd (Arp2/3 complex (yeast) (Saccharomyces cerevisiae, UniProt P32381+P47117, P47117:F362A)). Entry: O=P(O)(O)OP(=O)(O)OP(=O)(O)OC[C@H]1O[C@@H](n2cnc3c2ncn2ccnc32)[C@H](O)[C@@H]1O
16.7

###

# measured-on: Arp2/3 complex (yeast) (Saccharomyces cerevisiae, UniProt P32381+P47117, P32381:D10A)
# procedure-details: fluorescence increase titration, one-site fit
measured-parameter: pKd
Give only the number. pKd is defined as minus log10 of concentration in molar units.

Consider the molecule shown here: O=P(O)(O)OP(=O)(O)OP(=O)(O)OC[C@H]1O[C@@H](n2cnc3c2ncn2ccnc32)[C@H](O)[C@@H]1O What is its recorded pKd?
5.70
